Tested on: SN12C renal
test protocol: NCI-60 one-dose screen, 48 h (100 = growth as untreated, 0 = no growth, -100 = all killed)
test settings: 10 µM unless noted
The panel holds about 83,000 compounds, 20% with a hit somewhere; the sample as a whole holds those more often.
quantity name: growth (%)
Respond with the bare value in %.

Illustrative cases are given below, each with its answer.
CN1CCN(CC#CCn2c3c(c4ccccc42)C[C@]2(C)[C@H]4CC=C5[C@@H]6CC(C)(C)CC[C@]6(C(=O)N6CCOCC6)CC[C@@]5(C)[C@]4(C)CC[C@H]2C3(C)C)CC1	81.1
CC(C)(C)OC(=O)Nc1ccc(-c2cccc(Oc3ccc4nnc(Cl)n4n3)c2)cc1	78.7
COc1cc(-c2nc(-c3ccccc3)[nH]c2-c2ccnc(NCCCNS(=O)(=O)c3ccc(C)cc3)n2)ccc1F	89.3
CC1(C)CC[C@]2(C(=O)O)CC[C@]3(C)C(=CC[C@@H]4[C@@]5(C)CC[C@H](NOCCCN)C(C)(C)[C@@H]5CC[C@]43C)[C@@H]2C1	83.5
O=C(CCCCCCNC(=O)C(O)(O)C(F)(F)F)Nc1ncc(-c2ccc(Br)cc2)s1	0.547

Given the compound `O=C(CCCCCCN1CC(=O)N2[C@@H](C3CC3)c3[nH]c4ccccc4c3C[C@H]2C1=O)NO` , write its reported growth.
79

Given the compound `CCCCc1nc2c(N)nc3ccccc3c2n1Cc1ccc(OC)cc1` , write its reported growth.
71.5

====

Tested on: MDA-MB-231 breast
test protocol: NCI-60 one-dose screen, 48 h
test settings: 10 µM unless noted
Protocol: Cells are grown in 96 well plates and exposed to the test compound for 48 hours. Compounds are tested at a single concentration, which is 10^-5 M for most compounds. The reported endpoint is percent growth (GI% or GIPRCNT), where numbers from 0 - 100% represent growth inhibition, and numbers from -100% - 0 represent cell death. For example, a value of 40 represents 60% growth inhibition. A value of 0 means no net growth occurred over the course of the experiment. […]
Compounds without any hit were thinned out: in the full panel of roughly 83,000, 20% have a hit. Active and inactive are the calls of the source. How the source made its calls: active means growth percent below 10; inactive means the rest.
Classes to choose from: active, inactive

Completed entries (count: 5):
C=C(C)[C@@H]1CC[C@]2(C(=O)O)CC[C@]3(C)[C@H](CC[C@@H]4[C@@]5(C)C/C(=C/c6ccccn6)C(=O)C(C)(C)[C@@H]5CC[C@]43C)[C@@H]12	inactive
CCCCN1C(=O)/C(=c2\sc3n(c2=O)C2C(NN=3)N(CC)C(=O)N2CC)c2cccc(C)c21 (centres undefined)	inactive
C#CCn1cc(/C=N/Nc2nc(-c3ccc(Br)cc3)cs2)c2ccccc21	inactive
Clc1ccc2[nH]cc(-c3nn4cc(-c5ccncc5)nc4s3)c2c1	inactive
N#Cc1nc(-c2ccc(Cl)cc2)oc1N1CCC(S(=O)(=O)N2CCOCC2)CC1	inactive

Lab log entry: `CCN(CC)CCOc1ccc(C(=C(C)c2ccc(OC)cc2)c2ccc(OCCN(CC)CC)cc2)cc1` — outcome as called in the assay?
active

Lab log entry: `CN1CCN(c2ccc(C(=O)/C=C/c3cc(F)cc(C(F)(F)F)c3)cc2)CC1` — outcome as called in the assay?
inactive

Lab log entry: `Fc1ccc(-c2cn3c(-c4c[nH]c5ccc(Br)cc45)csc3n2)cc1` — outcome as called in the assay?
inactive

Lab log entry: `NS(=O)(=O)c1cccc(Nc2nc(SCC(=O)c3ccc(Cl)cc3)nc3c2CCC3)c1` — outcome as called in the assay?
inactive
